Assay Target: HLA-A*68:01
Protocol Description: IEDB peptide-MHC binding, purified MHC/competitive/radioactivity; filed as Kd, often an IC50 or EC50 that approximates it; bounds were set here for any values at or beyond the usual limits of such assays
Protocol Conditions: source organism: Dengue virus 4 Philippines/H241/1956
Entries and their measured Kd follow.
Only the number, expressed in µM, is required.

Ask | Could you share which Kd value was measured for TTSKMLLNR ?
Reply | 0.0598

Ask | Can you share its Kd? I mean this sequence: NTTSKMLLNR
Reply | 0.179

###

Assay Target: HLA-A*31:01
Protocol Description: IEDB peptide-MHC binding, purified MHC/competitive/fluorescence; filed as Kd, often an IC50 or EC50 that approximates it; bounds were set here for any values at or beyond the usual limits of such assays
Protocol Conditions: source organism: Influenza A virus (A/Fort Monmouth/1/1947-mouse adapted(H1N1))
Parameter Measured: Kd (nM)
The response must be a number in nM with no trailing unit.

Ask | # get_value(readout='Kd', item= NTMTKDAER )
Reply | 108
